The measurements presented in this section are drawn from the supplement of paper PMC10567573.

B1: WDFY1 (parent)
chain: FWNIKQMWDTKTLGLRQHHCRKCG

Variants of: B1
procedure.summary: protein stability index of a GFP-peptide fusion (GPS, HEK-293T) (PSI 1-6); higher = more stable;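 note: lentivirally expressed fusions sorted by FACS into six bins by GFP to DsRed ratio, PSI derived from sequencing read proportions per bin multiplied by bin number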
experimental.context: c terminus: a fixed tail appended
Entries annotated with measured protein stability index
measured.quantity: protein stability index

>>> assay_value("FWNIKQMWDTKTLRLRQHHCRKCG [G14R]")
3.17
>>> assay_value("RWNIKQMWDTKTLGLRQHHCRKCG [F1R]")
1.54
>>> assay_value("FWNIKQMWDTKTLGLRQHHCMKCG [R21M]")
1.71
>>> assay_value("FWNIKQMWDTKTWGLRQHHCRKCG [L13W]")
2.01
>>> assay_value("FWNIKQMWDTKTLGLRQHWCRKCG [H19W]")
1.66
>>> assay_value("FWNIKQMWDTKTCGLRQHHCRKCG [L13C]")
2.57
>>> assay_value("FWNIKQMWDTKELGLRQHHCRKCG [T12E]")
1.72
>>> assay_value("FWNIKQMWDTKTLGLRQHHCRKCR [G24R]")
2.35
>>> assay_value("FWNIKQMWDTKTLGLRQYHCRKCG [H18Y]")
2.08
>>> assay_value("FWNIKQMDDTKTLGLRQHHCRKCG [W8D]")
3.27
>>> assay_value("FWNIKQMWDTKTDGLRQHHCRKCG [L13D]")
1.7
>>> assay_value("FWNIKQMWRTKTLGLRQHHCRKCG [D9R]")
2.24
>>> assay_value("FWNGKQMWDTKTLGLRQHHCRKCG [I4G]")
2.19
>>> assay_value("FWNIKQMKDTKTLGLRQHHCRKCG [W8K]")
2.18
>>> assay_value("FWNIKQPWDTKTLGLRQHHCRKCG [M7P]")
1.95
>>> assay_value("FWNIKQMWDTKTLGLRQHHMRKCG [C20M]")
2.57
>>> assay_value("FWNIKQMWDTKTLGLRQHHCEKCG [R21E]")
2.07
>>> assay_value("FWNIKQMWDTKWLGLRQHHCRKCG [T12W]")
1.79
>>> assay_value("FWNIKQMWDTKTLGLRQHHCRKCE [G24E]")
2.18
>>> assay_value("FWNIKQMWDTKTLGLRSHHCRKCG [Q17S]")
2.05
>>> assay_value("FWNIKQMWDTKTLDLRQHHCRKCG [G14D]")
2.69
>>> assay_value("FWNIKQMWDFKTLGLRQHHCRKCG [T10F]")
2.52
>>> assay_value("FWNIKQMWDTKTLGLRCHHCRKCG [Q17C]")
2.13
>>> assay_value("FWNIKEMWDTKTLGLRQHHCRKCG [Q6E]")
2.37
>>> assay_value("FWNIKQMWETKTLGLRQHHCRKCG [D9E]")
1.95
>>> assay_value("FWNIKQMWDTKTLGLRQHHCRSCG [K22S]")
1.66
>>> assay_value("FQNIKQMWDTKTLGLRQHHCRKCG [W2Q]")
1.75
>>> assay_value("FWNIKQMWDTKTLGLEQHHCRKCG [R16E]")
2.3
>>> assay_value("FWNIKQMWDTETLGLRQHHCRKCG [K11E]")
3.03
>>> assay_value("FWNIKQWWDTKTLGLRQHHCRKCG [M7W]")
1.96
>>> assay_value("FWNIKQMEDTKTLGLRQHHCRKCG [W8E]")
2.44
>>> assay_value("FWNIEQMWDTKTLGLRQHHCRKCG [K5E]")
2.43
>>> assay_value("FWNIKQMLDTKTLGLRQHHCRKCG [W8L]")
1.76
>>> assay_value("DWNIKQMWDTKTLGLRQHHCRKCG [F1D]")
2.79
>>> assay_value("FWNIKQMWDTKTLGLRQHHCRKCK [G24K]")
2.5
>>> assay_value("FWNIKQMFDTKTLGLRQHHCRKCG [W8F]")
1.67
>>> assay_value("FWNIKQMWDTKTLGLRQHHDRKCG [C20D]")
3.16
>>> assay_value("FWNIKQMWDSKTLGLRQHHCRKCG [T10S]")
2.18
>>> assay_value("FWNIKQMWDTKHLGLRQHHCRKCG [T12H]")
1.86
>>> assay_value("FWCIKQMWDTKTLGLRQHHCRKCG [N3C]")
2.56
>>> assay_value("FWNIKQMWDTKTLGLRQHHCIKCG [R21I]")
1.72
>>> assay_value("FWNIKQMWDTKTLGLRQHHCRKCP [G24P]")
1.88
>>> assay_value("FWNIKNMWDTKTLGLRQHHCRKCG [Q6N]")
2.22
>>> assay_value("FWNIKQMWDTKTLGLRQHHCRACG [K22A]")
1.59
>>> assay_value("FWNIKQMWDTKTLGLRQHHCQKCG [R21Q]")
2.28
>>> assay_value("FWNIKQMWDTKTLGLRQHHCRKAG [C23A]")
2.18
>>> assay_value("FWNIKQMWDTKTLGLYQHHCRKCG [R16Y]")
1.6
>>> assay_value("FWNIKQMWDTKTLGLRAHHCRKCG [Q17A]")
1.6
>>> assay_value("FWNIKQMWDTKTLGLRHHHCRKCG [Q17H]")
1.83
>>> assay_value("FWNIKQMWDTKTLGLRYHHCRKCG [Q17Y]")
1.98
>>> assay_value("FWNIKQMADTKTLGLRQHHCRKCG [W8A]")
2.57
>>> assay_value("FWNIKQMWDTKTLPLRQHHCRKCG [G14P]")
2.11
>>> assay_value("FWNIKQMWDTKTQGLRQHHCRKCG [L13Q]")
2.02
>>> assay_value("FWNIKQMWDTKTLGLRQHHCRLCG [K22L]")
1.34
>>> assay_value("FNNIKQMWDTKTLGLRQHHCRKCG [W2N]")
2.46
>>> assay_value("FWNIKQQWDTKTLGLRQHHCRKCG [M7Q]")
2.92
>>> assay_value("FWNIKSMWDTKTLGLRQHHCRKCG [Q6S]")
2.01
>>> assay_value("FWNIKQMWDTKTLGLRQHHPRKCG [C20P]")
1.73
>>> assay_value("FWNEKQMWDTKTLGLRQHHCRKCG [I4E]")
3.05
>>> assay_value("FWSIKQMWDTKTLGLRQHHCRKCG [N3S]")
1.61
>>> assay_value("FWNIKPMWDTKTLGLRQHHCRKCG [Q6P]")
1.97
>>> assay_value("FWNIKQMWSTKTLGLRQHHCRKCG [D9S]")
2.02
>>> assay_value("FWNIKQRWDTKTLGLRQHHCRKCG [M7R]")
2.58
>>> assay_value("FWNIKQMWTTKTLGLRQHHCRKCG [D9T]")
1.47
>>> assay_value("FWNIKQVWDTKTLGLRQHHCRKCG [M7V]")
1.64
>>> assay_value("FWNIKQMWDTKTLGLRMHHCRKCG [Q17M]")
1.7
>>> assay_value("FWNIKQMWDTKTLGLRQHHIRKCG [C20I]")
2.17
>>> assay_value("FWNIKHMWDTKTLGLRQHHCRKCG [Q6H]")
2.22
>>> assay_value("FWNIKQMWDTKTLGLRQHHCRKCQ [G24Q]")
2.21
>>> assay_value("FWNIRQMWDTKTLGLRQHHCRKCG [K5R]")
1.82
>>> assay_value("FWNIKQHWDTKTLGLRQHHCRKCG [M7H]")
2.9
>>> assay_value("FWNIKQMWDTKTMGLRQHHCRKCG [L13M]")
2
>>> assay_value("FWNIKQMWDTKDLGLRQHHCRKCG [T12D]")
1.91
>>> assay_value("FWNIKQMWDTKTLGLRQHHCDKCG [R21D]")
2.8
>>> assay_value("FWNIKQMWDTKTLGLRQHHYRKCG [C20Y]")
2.23
>>> assay_value("FWNIKQMWDTKTLGMRQHHCRKCG [L15M]")
1.79
>>> assay_value("FWNLKQMWDTKTLGLRQHHCRKCG [I4L]")
1.74
